- Tested on: Phytophthora infestans
- method-description: whole plant or invertebrate
- Assay type: in vivo
- stated-conditions: tomato late blight; spray 17 h after inoculation; compounds without asterisk (not 40 or 10 ppm)
measure-name: Test D disease rating (100 = 100% disease control, 0 = no disease control) (%)
Answers are plain numbers, in %.

Guide cases for Test D disease rating (100 = 100% disease control, 0 = no disease control), answers given:
{"molecule": "Cc1ccc(C)c(CC(=O)N2CCC(c3nc(C(=O)N(C)C4CCCC(C)C4C)cs3)CC2)c1 (stereo not drawn)", "unit-name": "%", "measured-number": 79}
{"molecule": "Cc1ccc(C)c(CC(=O)N2CCC(c3nc(C(=O)N(C)Cc4ccccc4)cs3)CC2)c1", "unit-name": "%", "measured-number": 0}
{"molecule": "Cc1ccc(C)c(CC(=O)N2CCC(c3nc(C(=O)N(C)[C@H]4CCCc5ccccc54)cs3)CC2)c1", "unit-name": "%", "measured-number": 79}
{"molecule": "Cc1cc(C)n(CC(=O)N2CCC(c3nc(C(=O)N(C)[C@H](C)c4ccccc4)cs3)CC2)n1", "unit-name": "%", "measured-number": 100}
{"molecule": "Cc1ccc(C)c(CC(=O)N2CCC(c3nc(C(=O)N(C)C4COc5ccccc54)cs3)CC2)c1 (stereo not drawn)", "unit-name": "%", "measured-number": 37}

Consider the additional molecule presented here.
Record for Cc1cc(C(F)(F)F)nn1CC(=O)N1CCC(c2nc(C(=O)N(C)C3CC(CO)c4ccccc43)cs2)CC1 (stereo not drawn) under target or system Phytophthora infestans: Test D disease rating (100 = 100% disease control, 0 = no disease control) reported as 99

* * *

- Tested on: Phytophthora infestans
- method-description: whole plant or invertebrate
- Format: in vivo
- stated-conditions: tomato late blight; spray 17 h after inoculation; compounds without asterisk (not 40 or 10 ppm)
I'd appreciate it if you could supply Test D disease rating (100 = 100% disease control, 0 = no disease control) values for the items below.
Answers are plain numbers, in %.

Guide cases for Test D disease rating (100 = 100% disease control, 0 = no disease control), answers given:
{"compound": "Cc1ccc(C)c(CC(=O)N2CCC(c3nc(C(=O)N(C)[C@H](C)c4cccc(C(F)(F)F)c4)cs3)CC2)c1 [compound 56]", "target-under-test": "Phytophthora infestans", "measured-number": 0}
{"compound": "Cc1cc(C(F)(F)F)nn1CC(=O)N1CCC(c2noc(C(=O)N(C)[C@H](C)c3ccccc3)n2)CC1", "target-under-test": "Phytophthora infestans", "measured-number": 16}
{"compound": "Cc1ccc(F)cc1CC(=O)N1CCC(c2nc(C(=O)N(C)[C@H](C)c3ccccc3)cs2)CC1", "target-under-test": "Phytophthora infestans", "measured-number": 70}

Okay, here is my list. What is Test D disease rating (100 = 100% disease control, 0 = no disease control) for each of these?
1. Cc1ccc(C)c(CC(=O)N2CCC(c3nc(C(=O)N(C)[C@@H](C)c4ccccc4)cs3)CC2)c1
2. COC(=O)Cc1ccccc1CC(=O)N1CCC(c2nc(C(=O)N(C)[C@H](C)c3ccccc3)cs2)CC1
3. C[C@H](c1ccccc1)N(C)C(=O)c1csc(C2CCN(C(=O)Cc3cc(Cl)ccc3Br)CC2)n1
4. CCc1nc(C)cn1CC(=O)N1CCC(c2nc(C(=O)N(C)[C@H](C)c3ccccc3)cs2)CC1
5. CCCc1nc(C(F)(F)F)cn1CC(=O)N1CCC(c2nc(C(=O)N(C)[C@H](C)c3ccccc3)cs2)CC1

Result ::
1: 16; 2: 9; 3: 100; 4: 0; 5: 47

* * *

- Test system: Erysiphe graminis f. sp. tritici
- method-description: Test E: wheat powdery mildew, spray the day before inoculation (disease rating, 100 = 100% disease control)
- Type: in vivo
- stated-conditions: sprayed the day before inoculation, 7 days at 20° C., unmarked compounds (no asterisk, not 40 or 10 ppm)
I'd appreciate it if you could supply Test E disease rating (100 = 100% disease control, 0 = no disease control) values for the items below.
Give bare numbers.

{"compound": "CCN(C(=O)c1csc(C2CCN(C(=O)Cc3cc(C)ccc3C)CC2)n1)[C@H](C)c1ccccc1 [compound 286]", "target-under-test": "Erysiphe graminis f. sp. tritici", "measured-number": 52}
{"compound": "Cc1cc(C(F)(F)F)nn1CC(=O)N1CCN(c2nc(C(=O)N(C)[C@@H]3CCCc4ccccc43)cs2)CC1C (some centres unmarked) [compound 293]", "target-under-test": "Erysiphe graminis f. sp. tritici", "measured-number": 0}
{"compound": "Cc1ccc(C)c(CC(=O)N2CCC(c3nc(C(=O)N[C@H](C)c4ccccc4)cs3)CC2)c1 [compound 283]", "target-under-test": "Erysiphe graminis f. sp. tritici", "measured-number": 0}
{"compound": "Cc1cc(C(F)(F)F)nn1CC(=O)N1CCC(c2nc(C(=O)N3CCc4ccccc4C3)cs2)CC1 [compound 296]", "target-under-test": "Erysiphe graminis f. sp. tritici", "measured-number": 0}
{"compound": "C[C@H](NC(=O)c1csc(C2CCN(C(=O)Cc3ccccc3Cl)CC2)n1)c1ccccc1 [compound 260]", "target-under-test": "Erysiphe graminis f. sp. tritici", "measured-number": 0}
{"compound": "Cc1ccc([C@@H](C)NC(=O)c2csc(C3CCN(C(=O)Cc4cccc(Br)c4)CC3)n2)cc1 [compound 274]", "target-under-test": "Erysiphe graminis f. sp. tritici", "measured-number": 0}

Okay, here is my list. What is Test E disease rating (100 = 100% disease control, 0 = no disease control) for each of these?
1. CC1CCN(C(=O)c2csc(C3CCN(C(=O)Cc4ccccc4Cl)CC3)n2)CC1 [compound 268]
2. O=C(NC1CCCc2ccccc21)c1csc(C2CCN(C(=O)Cc3ccccc3Cl)CC2)n1 (centres unmarked) [compound 266]
3. Cc1cc(C(F)(F)F)nn1CC(=O)N1CCC(c2nc(C(=O)N3CCC4CCCCC4C3)cs2)CC1 (centres unmarked) [compound 299]

Result ::
1. 0
2. 42
3. 0

Okay, here is my list. What is Test E disease rating (100 = 100% disease control, 0 = no disease control) for each of these?
1. O=C(NCCc1ccccc1)c1csc(C2CCN(C(=O)Cc3ccccc3Cl)CC2)n1 [compound 264]
2. C[C@@H](NC(=O)c1csc(C2CCN(C(=O)Cc3cccc(Br)c3)CC2)n1)c1ccccc1F [compound 276]
3. CC[C@@H](NC(=O)c1csc(C2CCN(C(=O)Cc3cccc(Br)c3)CC2)n1)c1ccccc1 [compound 278]
4. C[C@@H](NC(=O)c1csc(C2CCN(C(=O)Cc3ccccc3Cl)CC2)n1)c1ccccc1 [compound 261]
5. Cc1cc(C(F)(F)F)nn1CC(=O)N1CCC(c2nc(C(=O)N3CCC(C)(C)CC3)cs2)CC1 [compound 309]
6. C[C@@H](NC(=O)c1csc(C2CCN(C(=O)Cc3cccc(Br)c3)CC2)n1)c1ccc(F)cc1 [compound 271]

Result ::
68
0
0
21
0
0

Okay, here is my list. What is Test E disease rating (100 = 100% disease control, 0 = no disease control) for each of these?
1. O=C(NCc1ccccc1)c1csc(C2CCN(C(=O)Cc3ccccc3Cl)CC2)n1 [compound 262]
2. Cc1cc(C(F)(F)F)nn1CC(=O)N1C(C)CN(c2nc(C(=O)N(C)[C@@H]3CCCc4ccccc43)cs2)CC1C (some centres unmarked) [compound 292]

Result ::
1: 0; 2: 0

* * *

- System: Phytophthora infestans
- method-description: whole plant or invertebrate
- Format: in vivo
- stated-conditions: tomato late blight; spray the day before inoculation; compounds without asterisk (not 40 or 10 ppm)
measure-name: Test C disease rating (100 = 100% disease control, 0 = no disease control) (%)
Answers are plain numbers, in %.

Guide cases for Test C disease rating (100 = 100% disease control, 0 = no disease control), answers given:
{"molecule": "Cc1ccc(C)c(CC(=O)N2CCC(c3nc(C(=O)N(C)C(C)(C)Cc4ccc(F)cc4)cs3)CC2)c1", "target-under-test": "Phytophthora infestans", "measured-number": 95}
{"molecule": "C=CC(c1ccccc1)N(C)C(=O)c1csc(C2CCN(C(=O)Cc3cc(C)ccc3C)CC2)n1 (stereo not drawn)", "target-under-test": "Phytophthora infestans", "measured-number": 71}
{"molecule": "Cc1ccccc1CC(=O)N1CCC(c2nc(C(=O)N(C)[C@H](C)c3ccccc3)cs2)CC1", "target-under-test": "Phytophthora infestans", "measured-number": 91}
{"molecule": "Cc1cc(C(F)(F)F)nn1CC(=O)N1CCC(c2nc(C(=O)N(C)C3CCCc4cc(O)ccc43)cs2)CC1 (stereo not drawn)", "target-under-test": "Phytophthora infestans", "measured-number": 100}

Okay, here is my list. What is Test C disease rating (100 = 100% disease control, 0 = no disease control) for each of these?
1. Cc1cc(C(F)(F)F)nn1CC(=O)N1CCC(c2nc(C(=O)N(C)[C@H](C(=O)O)c3ccccc3)cs2)CC1
2. Cc1cc(C(F)(F)F)nn1CC(=O)N1CCCN(c2nc(C(=O)N(C)[C@@H]3CCCc4ccccc43)cs2)CC1

Result ::
1: 47; 2: 99
